Can you tell me Ki for the items I'm about to list?
Protein target, amino acids: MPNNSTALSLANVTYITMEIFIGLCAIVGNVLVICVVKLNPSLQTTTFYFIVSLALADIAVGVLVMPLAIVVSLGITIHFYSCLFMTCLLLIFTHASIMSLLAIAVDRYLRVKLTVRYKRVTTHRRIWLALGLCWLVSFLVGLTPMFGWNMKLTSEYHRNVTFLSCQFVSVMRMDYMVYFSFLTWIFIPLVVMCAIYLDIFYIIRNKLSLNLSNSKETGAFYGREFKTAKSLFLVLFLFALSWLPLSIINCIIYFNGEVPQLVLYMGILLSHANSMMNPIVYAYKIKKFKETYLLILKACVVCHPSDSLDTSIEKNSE
The answer is to be given in nM; state only the numeric part.

Task: Given the molecule Cn1cc2c(nc(NC(=O)Nc3ccc(CC(=O)NCCOCCOCCNC(=S)Nc4ccc(-c5c6ccc(=O)cc-6oc6cc(O)ccc56)c(C(=O)O)c4)cc3)n3nc(-c4ccco4)nc23)n1 [Compound 17] , what is its reported Ki?
Output: 137

Task: # iterate: Cn1cc2c(nc(NC(=O)Nc3ccc(CC(=O)NCCCOCCOCCOCCCNC(=S)Nc4ccc(-c5c6ccc(=O)cc-6oc6cc(O)ccc56)c(C(=O)O)c4)cc3)n3nc(-c4ccco4)nc23)n1 [Compound 18]
Output: 207

###

TARGET UNDER TEST: hA1AR (Homo sapiens)
Sequence (P30542 1-326): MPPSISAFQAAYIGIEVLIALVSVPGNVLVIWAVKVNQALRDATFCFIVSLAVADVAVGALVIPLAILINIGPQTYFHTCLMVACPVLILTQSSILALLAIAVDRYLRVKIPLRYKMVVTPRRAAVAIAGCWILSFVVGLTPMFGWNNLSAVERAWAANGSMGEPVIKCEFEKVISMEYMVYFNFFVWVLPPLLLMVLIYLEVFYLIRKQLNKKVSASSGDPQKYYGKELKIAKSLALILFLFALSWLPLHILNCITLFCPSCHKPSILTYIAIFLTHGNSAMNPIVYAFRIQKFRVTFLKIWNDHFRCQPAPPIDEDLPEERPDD
PROTOCOL: Radioligand binding
CONDITION LABEL: read-out: hA1 % of inhibition
Can you tell me inhibition at 10 µM for the items I'm about to list?
The answer is to be given in %; state only the numeric part.

Task: Given the compound Cn1cc2c(nc(NC(=O)Nc3ccc(CC(=O)NCCOCCOCCNC(=S)Nc4ccc(-c5c6ccc(=O)cc-6oc6cc(O)ccc56)c(C(=O)O)c4)cc3)n3nc(-c4ccco4)nc23)n1 , what is its reported inhibition at 10 µM?
Output: 29

Task: # iterate: Cn1cc2c(nc(NC(=O)Nc3ccc(CC(=O)NCCCNC(=S)Nc4ccc(-c5c6ccc(=O)cc-6oc6cc(O)ccc56)c(C(=O)O)c4)cc3)n3nc(-c4ccco4)nc23)n1
Output: 27

Task: # iterate: Cn1cc2c(nc(NC(=O)Nc3ccc(CC(=O)NCCCOCCOCCOCCCNC(=S)Nc4ccc(-c5c6ccc(=O)cc-6oc6cc(O)ccc56)c(C(=O)O)c4)cc3)n3nc(-c4ccco4)nc23)n1
Output: 32

Task: # iterate: Cn1cc2c(nc(NC(=O)Nc3ccc(CC(=O)NCCCCNC(=S)Nc4ccc(-c5c6ccc(=O)cc-6oc6cc(O)ccc56)c(C(=O)O)c4)cc3)n3nc(-c4ccco4)nc23)n1
Output: 28

Task: # iterate: Cn1cc2c(nc(NC(=O)Nc3ccc(CC(=O)NCCCCCNC(=S)Nc4ccc(-c5c6ccc(=O)cc-6oc6cc(O)ccc56)c(C(=O)O)c4)cc3)n3nc(-c4ccco4)nc23)n1
Output: 21

Task: # iterate: C#CCCC(=O)Nc1nc2nn(C)cc2c2nc(-c3ccco3)nn12
Output: 55
